# TARGET OR TEST SYSTEM: FGFR2(V564F) (Homo sapiens, UniProt P21802, V564F)
# Construct: FGFR2 (residues 453−770); 6×His (N, cleaved yes)
# Sequence (P21802 453-770 V564F): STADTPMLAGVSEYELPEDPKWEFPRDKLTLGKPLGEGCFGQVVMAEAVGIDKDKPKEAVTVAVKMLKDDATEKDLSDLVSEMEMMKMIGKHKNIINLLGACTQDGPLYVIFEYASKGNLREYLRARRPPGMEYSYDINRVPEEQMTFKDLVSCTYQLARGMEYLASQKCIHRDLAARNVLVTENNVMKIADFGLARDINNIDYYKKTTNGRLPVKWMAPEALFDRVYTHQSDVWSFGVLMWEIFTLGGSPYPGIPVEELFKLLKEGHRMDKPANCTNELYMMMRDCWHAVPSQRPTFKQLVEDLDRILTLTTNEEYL
# TEST NAME: ADP-Glo kinase inhibition assay, FGFR2(V564F) gatekeeper mutant
# RUN PARAMETERS: kinase activity, ADP-Glo, 10 μM ATP, n = 3
pIC50: −log10 of the molar value.
ASSAY ENDPOINT: pIC50

{"SUBSTANCE SMILES": "C=CC(=O)Nc1ccc(CN2C(=O)N(c3cc(OC)cc(OC)c3)Cc3cnc(Nc4ccc(N5CCN(C)CC5)cc4)nc32)cc1", "RESULT": 6.56}
